run.parameters: [M+H]+; instrument: DT; single field, calibrated with ESI Low Concentration Tuning Mix (Agilent)
measurement.label: collision cross section (N2) (Å²)

{"columns": ["compound", "unit.descriptor", "collision cross section (N2)"],
 "data": [
  ["CCC[C@H](N)C(=O)O", "Å²", 120.9],
  ["NCCC(=O)N[C@@H](Cc1cnc[nH]1)C(=O)O", "Å²", 150.8],
  ["Cc1ncc(CO)c(CN)c1O", "Å²", 133.7],
  ["NC(Cc1c[nH]c2ccc(O)cc12)C(=O)O (stereo unspecified) [5-HYDROXYTRYPTOPHAN]", "Å²", 154.5],
  ["CC1C(=O)Nc2ccccc21 (stereo unspecified)", "Å²", 130.4],
  ["NC(=O)Cc1c[nH]c2ccccc12 [INDOLE-3-ACETAMIDE]", "Å²", 137],
  ["NCCS(=O)O", "Å²", 125.4],
  ["NCCC[C@@H](N)C(=O)O", "Å²", 128.1],
  ["OCCc1c[nH]c2ccccc12", "Å²", 133.6],
  ["Cc1cc2nc[nH]c2cc1C", "Å²", 130.3],
  ["O=C1CC[C@@H](C(=O)O)N1 [PYROGLUTAMATE]", "Å²", 130.1]
]}

---

run.parameters: [M+H]+; instrument: TW; calibrated with polyalanine
measurement.label: collision cross section (N2) (Å²)

{"columns": ["compound", "unit.descriptor", "collision cross section (N2)"],
 "data": [
  ["Cc1ncc(CO)c(CN)c1O [Pyridoxamine]", "Å²", 130],
  ["NC(N)=NCCC[C@H](N)C(=O)O [Arginine]", "Å²", 133],
  ["NC(=O)NCCC[C@H](N)C(=O)O [Citrulline]", "Å²", 132],
  ["N[C@@H](Cc1ccc(O)cc1)C(=O)O [Tyrosine]", "Å²", 139],
  ["CC[C@H](C)[C@H](N)C(=O)O [Isoleucine]", "Å²", 129],
  ["N[C@@H]1[C@@H](O)[C@H](O)[C@@H](COP(=O)(O)O)O[C@@H]1O [Glucosamine 6-phosphate]", "Å²", 150],
  ["CN(C)C(N)=NCCC[C@H](N)C(=O)O [ADMA]", "Å²", 141],
  ["CSCC[C@H](N)C(=O)O [Methionine]", "Å²", 127],
  ["O=c1ccn([C@@H]2O[C@H](COP(=O)(O)OP(=O)(O)O)[C@@H](O)[C@H]2O)c(=O)[nH]1 [UDP]", "Å²", 174],
  ["Nc1nc(=O)c2ncn([C@@H]3O[C@H](COP(=O)(O)O)[C@@H](O)[C@H]3O)c2[nH]1 [GMP]", "Å²", 176]
]}

---

run.parameters: [M+H]+; instrument: DT; stepped-field
measurement.label: collision cross section (N2) (Å²)

Past entries and their recorded results:
{"columns": ["molecule", "collision cross section (N2) (Å²)"],
 "data": [
  ["O=C1CC(c2ccc(O)cc2)Oc2cc(O)cc(O)c21 (stereo not drawn) [Naringenin]", 167.96],
  ["CCCCC/C=C\\C\\C=C/C=C/C=C/[C@@H](SC[C@H](NC(=O)CC[C@H](N)C(=O)O)C(=O)NCC(=O)O)[C@@H](O)CCCC(=O)O [Leukotriene C4]", 257.4],
  ["C[C@@H]1O[C@@H](OC[C@H]2O[C@@H](Oc3c(-c4ccc(O)c(O)c4)oc4cc(O)cc(O)c4c3=O)[C@H](O)[C@@H](O)[C@@H]2O)[C@H](O)[C@H](O)[C@H]1O [Rutin]", 236.2],
  ["Cn1c(=O)c2c(ncn2C)n(C)c1=O [Caffeine]", 145.4],
  ["C[n+]1cccc(C(=O)[O-])c1 [Trigonelline]", 126.37]
]}

a. CCCCCCCCCCCCCCCCCCC(=O)OC[C@@H](O)COP(=O)([O-])OCC[N+](C)(C)C [LPC(19:0)]
b. CC12CCC(CC1=O)C2(C)C (stereo not drawn) [Camphor]
Enquiry: Sorting by collision cross section (N2) in descending order, would a or b appear first? State the label of the item chosen.
Return: a
